System: human lung (A549) carcinoma cell line
test-name: Cell viability assay in A549 cells
Format: cell-based
condition-label: A549
endpoint-label: potency relative to KG5 (cell viability EC50s)

[[record]]
compound = "CSc1nc(N)cc(Oc2ccc(-c3nnc(Nc4cc(C)cc(C)c4)[nH]3)cc2)n1"
value = "more potent than KG5"

[[record]]
compound = "CSc1nc(N)cc(Oc2ccc(-c3cnc(Nc4cccc(C(F)(F)F)c4)[nH]3)cc2)n1"
value = "more potent than KG5"

[[record]]
compound = "CSc1nc(N)cc(Oc2ccc(-c3nnc(Nc4cccc5c4CCCC5)[nH]3)cc2)n1"
value = "more potent than KG5"

[[record]]
compound = "CSc1nc(N)cc(Oc2ccc(-c3nnc(Nc4cc(C)ccc4C)[nH]3)cc2)n1"
value = "more potent than KG5"

